Target: Axl (UniProt P30530)
Sequence (P30530 26-451 limits assumed): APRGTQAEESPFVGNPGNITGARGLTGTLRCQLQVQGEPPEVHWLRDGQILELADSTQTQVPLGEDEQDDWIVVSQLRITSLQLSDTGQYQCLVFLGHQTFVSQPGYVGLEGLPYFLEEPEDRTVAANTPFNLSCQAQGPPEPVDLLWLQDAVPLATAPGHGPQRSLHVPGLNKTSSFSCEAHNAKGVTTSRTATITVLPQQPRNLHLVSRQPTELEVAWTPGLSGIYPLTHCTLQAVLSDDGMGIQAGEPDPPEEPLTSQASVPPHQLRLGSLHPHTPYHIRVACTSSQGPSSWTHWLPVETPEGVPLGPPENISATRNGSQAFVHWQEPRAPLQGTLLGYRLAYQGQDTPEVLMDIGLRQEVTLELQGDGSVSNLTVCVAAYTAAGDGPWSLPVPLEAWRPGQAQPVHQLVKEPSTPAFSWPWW
Assay: ELISA, 1:9 dilution
Reported values of Affinity ELISA CPE mutant ratio (1:9, pH 6.0/7.4) for individual entries
readoutLabel: Affinity ELISA CPE mutant ratio (1:9, pH 6.0/7.4)

[
  {
    "binder": "LC-L096G (antibody, V domains shown) VH: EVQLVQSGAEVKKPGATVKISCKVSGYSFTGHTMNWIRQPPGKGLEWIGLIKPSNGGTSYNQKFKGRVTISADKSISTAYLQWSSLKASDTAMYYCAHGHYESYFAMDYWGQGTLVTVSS VL: DIQMTQSPSSLSASVGDRVTITCKASQDVSSAVAWYQQKPGQAPRLLIYWASTRHTGVPSRFSGSGSGTEFTLTISSLQPDDFATYYCQEHFSTPGTFGQGTKVEIK",
    "testValue": 2.44
  },
  {
    "binder": "LC-T097I (antibody, V domains shown) VH: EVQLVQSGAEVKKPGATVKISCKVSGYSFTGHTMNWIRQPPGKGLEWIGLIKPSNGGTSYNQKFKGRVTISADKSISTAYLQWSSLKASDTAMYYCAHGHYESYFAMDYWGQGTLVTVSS VL: DIQMTQSPSSLSASVGDRVTITCKASQDVSSAVAWYQQKPGQAPRLLIYWASTRHTGVPSRFSGSGSGTEFTLTISSLQPDDFATYYCQEHFSTPLIFGQGTKVEIK",
    "testValue": 4.05
  },
  {
    "binder": "HC-S103N (antibody, V domains shown) VH: EVQLVQSGAEVKKPGATVKISCKVSGYSFTGHTMNWIRQPPGKGLEWIGLIKPSNGGTSYNQKFKGRVTISADKSISTAYLQWSSLKASDTAMYYCAHGHYENYFAMDYWGQGTLVTVSS VL: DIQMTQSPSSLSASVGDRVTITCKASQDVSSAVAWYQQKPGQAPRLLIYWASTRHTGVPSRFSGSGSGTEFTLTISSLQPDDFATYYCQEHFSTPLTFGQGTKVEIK",
    "testValue": 3.18
  },
  {
    "binder": "LC-H091C (antibody, V domains shown) VH: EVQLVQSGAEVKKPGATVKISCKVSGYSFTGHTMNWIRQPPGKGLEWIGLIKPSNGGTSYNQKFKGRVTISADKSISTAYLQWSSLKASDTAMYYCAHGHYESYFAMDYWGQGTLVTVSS VL: DIQMTQSPSSLSASVGDRVTITCKASQDVSSAVAWYQQKPGQAPRLLIYWASTRHTGVPSRFSGSGSGTEFTLTISSLQPDDFATYYCQECFSTPLTFGQGTKVEIK",
    "testValue": 3.02
  }
]
